assay: Hemolytic activity in human erythrocytes at 256 ug/ml measured after 1 hr by absorbance based assay relative to control; assay type: toxicity, cell-based, Erythrocyte; settings: at 256 µg/mL, read-out: Activity
We begin with a simple list: items and their reported hemolysis at 1 h, 256 ug/ml.
Reported Metric: hemolysis at 1 h, 256 ug/ml (%)

[[record]]
line_notation = "CC[C@H](NC(=O)[C@@H](O)[C@@H](C)CC)C(=O)N[C@@H](CC(C)C)C(=O)N[C@H](CCCN)C(=O)N[C@H](C(=O)N[C@H](C(=O)N[C@H](C(=O)N[C@H](CCCCN)C(=O)N[C@H](C(=O)N[C@H](C(=O)N[C@@H](CCCCN)C(=O)N[C@H](Cc1ccc(O)cc1)C(=O)N[C@@H](CC(C)C)C(=O)N[C@H](C(N)=O)C(C)C)C(C)C)C(C)C)C(C)C)[C@@H](C)CC)[C@@H](C)CC"
reported_metric = "hemolysis at 1 h, 256 ug/ml"
units_of_measure = "%"
numeric_readout = 38.2

[[record]]
line_notation = "CC[C@H](NC(=O)[C@@H](NC(C)=O)[C@@H](C)CC)C(=O)N[C@@H](CC(C)C)C(=O)N[C@H](CCCN)C(=O)N[C@H](C(=O)N[C@H](C(=O)N[C@H](C(=O)N[C@H](CCCCN)C(=O)N[C@H](C(=O)N[C@H](C(=O)N[C@@H](CCCCN)C(=O)N[C@H](Cc1ccc(O)cc1)C(=O)N[C@@H](CC(C)C)C(=O)N[C@H](C(N)=O)C(C)C)C(C)C)C(C)C)C(C)C)[C@@H](C)CC)[C@@H](C)CC"
reported_metric = "hemolysis at 1 h, 256 ug/ml"
units_of_measure = "%"
numeric_readout = 38.2

[[record]]
line_notation = "CC[C@H](NC(=O)[C@@H](O)[C@@H](C)CC)C(=O)N[C@@H](CC(C)C)C(=O)N[C@H](CCCN)C(=O)N[C@H](C(=O)N[C@H](C(=O)N[C@H](C(=O)N[C@H](CCCCN)C(=O)N[C@H](C(=O)N[C@H](C(=O)N[C@@H](CCCCN)C(=O)N[C@H](Cc1ccc(O)cc1)C(=O)N[C@@H](CC(C)C)C(=O)N[C@H](CO)C(C)C)C(C)C)C(C)C)C(C)C)[C@@H](C)CC)[C@@H](C)CC"
reported_metric = "hemolysis at 1 h, 256 ug/ml"
units_of_measure = "%"
numeric_readout = 58.7

